- System: 168753-222-R-J1-PDC complex spheroid viability;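 note: luminescence signal used as surrogate for viable cell amount; viability measured after seven days of drug exposure; 100% = DMSO vehicle control wells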
- Protocol Description: Anticancer human tumor 168753-222-R-J1-PDC patient-derived bladder carcinoma cell line growth inhibition [CLK]
- Settings: second compound 10 µM; first compound 0.3 µM; active compounds read low
- Source text: A high-throughput screen of multi-cell type tumor spheroids was designed to identify active combinations of […] and targeted small molecules. Complex spheroids include a stromal component modeled by human endothelial cells (HUVEC) and fibroblasts modeled by human mesenchymal stem cells (MSCs). […] Compounds. […] If the clinical Cmax for an agent had not been determined, the highest concentration tested was 10 microM. […]
Property Measured: viability, T/C (%)

molecule="NC(=O)C(=Cn1cnc(-c2cc(C(F)(F)F)cc(C(F)(F)F)c2)n1)c1cncnc1 + CNC(=O)c1ccc(Nc2nc(OC3CCCC3)c3c(-c4ccc5nc(C)oc5c4)c[nH]c3n2)c(OC)c1" experimental_result=1.11
molecule="NC(=O)C(=Cn1cnc(-c2cc(C(F)(F)F)cc(C(F)(F)F)c2)n1)c1cncnc1 + CN1CCN(c2cc(C(=O)Nc3cc4cc(-c5cnn(C)c5)ccc4cn3)ccn2)CC1" experimental_result=0.13
molecule="CC(C)CC(NC(=O)C(Cc1ccccc1)NC(=O)c1cnccn1)B(O)O (stereo unspecified) + CNC(=O)c1ccc(Nc2nc(OC3CCCC3)c3c(-c4ccc5nc(C)oc5c4)c[nH]c3n2)c(OC)c1" experimental_result=0.25
molecule="CC(C)CC(NC(=O)C(Cc1ccccc1)NC(=O)c1cnccn1)B(O)O (stereo unspecified) + CN1CCN(c2cc(C(=O)Nc3cc4cc(-c5cnn(C)c5)ccc4cn3)ccn2)CC1" experimental_result=1.04
molecule="C=CC(=O)Nc1cc(Nc2nccc(-c3cn(C)c4ccccc34)n2)c(OC)cc1N(C)CCN(C)C + CN1CCN(c2cc(C(=O)Nc3cc4cc(-c5cnn(C)c5)ccc4cn3)ccn2)CC1" experimental_result=0.37
molecule="C=CC(=O)Nc1cc(Nc2nccc(-c3cn(C)c4ccccc34)n2)c(OC)cc1N(C)CCN(C)C + CNC(=O)c1ccc(Nc2nc(OC3CCCC3)c3c(-c4ccc5nc(C)oc5c4)c[nH]c3n2)c(OC)c1" experimental_result=15.6
